These data points were gathered from patent US4780281A.

- target.of.assay: Prostaglandin H Synthase (Ovis aries, UniProt P05979)
- assay.name: Reducing substrate efficiency for PPHP reduction, conditions as for Table 1
- Assay type: biochemical
- cond: Prostaglandin H synthase, under the conditions for Table 1
Listing: Index of Efficiency of Reducing Substrates of selected molecules

The examples below pair each entry with its known result.
molecule | measurement
CC(C)Cc1ccc(C(C)C(=O)O)cc1 (stereo not shown) | .12
O=C(O)c1ccccc1Nc1cccc(C(F)(F)F)c1 [Flufenamate] | .68
CC(C)(C)c1cc(I)c(O)c(CN)c1 | .72
Oc1ccccc1 | .51
CSc1ccccc1 [Methylphenyl Sulfide] | .50

# input molecule: O=C(O)c1ccccc1O ; wanted: its Index of Efficiency of Reducing Substrates .06

Now try Cc1cc(NC(=O)C2=C(O)c3ccccc3S(=O)(=O)N2C)no1 . .25

====

- target.of.assay: Prostaglandin H Synthase (Ovis aries, UniProt P05979)
- Sequence (P05979 25-600): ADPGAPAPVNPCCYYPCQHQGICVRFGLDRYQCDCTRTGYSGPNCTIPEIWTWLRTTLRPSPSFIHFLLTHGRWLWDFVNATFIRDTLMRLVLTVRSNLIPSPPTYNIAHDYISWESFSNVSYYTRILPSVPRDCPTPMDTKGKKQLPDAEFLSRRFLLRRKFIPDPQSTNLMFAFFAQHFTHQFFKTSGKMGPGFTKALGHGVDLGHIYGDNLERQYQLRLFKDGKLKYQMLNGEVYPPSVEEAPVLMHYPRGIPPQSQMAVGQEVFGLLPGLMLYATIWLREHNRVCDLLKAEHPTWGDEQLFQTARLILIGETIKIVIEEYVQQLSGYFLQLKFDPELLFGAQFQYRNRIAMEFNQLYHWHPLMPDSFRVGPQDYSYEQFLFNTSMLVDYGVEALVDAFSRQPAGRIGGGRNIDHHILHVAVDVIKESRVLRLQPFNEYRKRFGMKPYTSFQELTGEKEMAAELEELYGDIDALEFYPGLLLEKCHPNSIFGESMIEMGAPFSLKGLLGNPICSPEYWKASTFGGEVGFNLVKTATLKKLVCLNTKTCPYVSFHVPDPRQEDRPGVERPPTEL
- assay.name: Reducing substrate efficiency for PPHP reduction, conditions as for Table 1
- Format: biochemical
- cond: Prostaglandin H synthase, under the conditions for Table 1
readout.name: Index of Efficiency of Reducing Substrates

molecule | measurement
CCCCC1C(=O)N(c2ccccc2)N(c2ccccc2)C1=O | .23

# input molecule: CSc1ccc(/C=C2/C(C)=C(CC(=O)O)c3cc(F)ccc32)cc1 [Sulindac Sulfide] ; wanted: its Index of Efficiency of Reducing Substrates .96

Now try CNC[C@H](O)c1ccc(O)c(O)c1 [Epinephrin, d,1-epinephrine] . .92

Now try Cc1c(CC(=O)O)c2cc(O)ccc2n1C(=O)c1ccc(Cl)cc1 [5-Hydroxy-indomethacin] . .34

Now try CCCCC1C(=O)NN(c2ccccc2)C1=O (stereo not drawn) . .23

Now try CC(=O)Oc1ccccc1C(=O)O . .04
